test: Oral bioavailability in human; details: in vivo
MEASUREMENT TYPE: bioavailability (%)
Report the figure in % without appending any unit label.

Note to self: bioavailability recorded for `Cc1ccnc2c1NC(=O)c1cccnc1N2C1CC1` was 93

# molecule O=C1CC[C@@]2(O)[C@H]3Cc4ccc(O)c5c4[C@@]2(CCN3CC2CC2)[C@H]1O5 [NALTREXONE] ; its bioavailability = 20

Kindly note the recorded bioavailability for `CN1CCN(C(=O)O[C@@H]2c3nccnc3C(=O)N2c2ccc(Cl)cn2)CC1` , which is 80

Noted for `N[C@H](Cc1ccc(N(CCCl)CCCl)cc1)C(=O)O` : its bioavailability reads 71

What the record says about `C[C@H](NC(C)(C)C)C(=O)c1cccc(Cl)c1` : bioavailability is 70

Reported bioavailability ( `C[C@H]1O[C@@H](O[C@H]2[C@@H](O)C[C@H](O[C@H]3[C@@H](O)C[C@H](O[C@H]4CC[C@@]5(C)[C@H](CC[C@@H]6[C@@H]5CC[C@]5(C)[C@@H](C7=CC(=O)OC7)CC[C@]65O)C4)O[C@@H]3C)O[C@@H]2C)C[C@H](O)[C@@H]1O` ) = 88.5

# bioavailability of COc1c(N2CCN[C@@H](C)C2)c(F)cc2c(=O)c(C(=O)O)cn(C3CC3)c12 [(S)-GATIFLOXACIN] = 96

Field bioavailability (entry `CCC1(c2ccccc2)C(=O)NC(=O)NC1=O` ) reads 96
